Header: pKi / Sodium-dependent noradrenaline transporter (Homo sapiens) / multiple publications
pKi: −log10 of the molar value.

| Molecule | Result |
| --- | --- |
| CNc1nnc(C)c2c(C)n(-c3cccc(OC(CCN)c4ccccc4)c3)nc12 (stereo not shown) | 6.00 to 6.30 |
| N[C@@H]1CCN(c2nc(-c3c(F)cccc3F)c3ccccc3n2)C1 | 7.11 |
| CCC[C@@H](Oc1cc(Cl)cc(Cl)c1)[C@H]1CCNC1 | ≥ 8.00 |
| CC[C@@H](Oc1ccccc1C)[C@H]1CCNC1 | ≥ 7.00 |
| CNCC[C@H](Oc1cccc(-c2ccnc(SC)n2)c1)c1ccccc1 | > 7.00 |

Input line: Quick check: pKi on Sodium-dependent noradrenaline transporter (Homo sapiens), item CCOc1ccc(-n2nc3c(NCc4ncccc4C(F)(F)F)nnc(C)c3c2C)c(F)c1 ?
Output line: < 6.00

Input line: Quick check: pKi on Sodium-dependent noradrenaline transporter (Homo sapiens), item CCOc1ccc(-n2nc3c(N4CC[C@H](NCc5ccncc5)C4)nnc(C)c3c2C)c(F)c1 ?
Output line: ≤ 6.00

Input line: Quick check: pKi on Sodium-dependent noradrenaline transporter (Homo sapiens), item CC(C)C[C@@H](Oc1ccc(Cl)c(Cl)c1)[C@H]1CCNC1 ?
Output line: ≥ 8.00

Input line: Quick check: pKi on Sodium-dependent noradrenaline transporter (Homo sapiens), item Fc1cccc(F)c1-c1nc(N[C@H]2CCNC2)nc2ccccc12 ?
Output line: 8.12

Input line: Quick check: pKi on Sodium-dependent noradrenaline transporter (Homo sapiens), item CNCC(Oc1cccc(-n2nc3c(N(C)C)nnc(C)c3c2C)c1)c1ccccc1 (stereo not shown) ?
Output line: > 7.00
